# maps each entry to its IC50
# Test system: α-SMA
# protocol.text: in vitro α-SMA expression inhibition (immunostaining, confocal microscopy) in TGF-β1-treated MRC-5 cells
# Assay type: cell-based, human
# experimental.conditions: Homo sapiens, TGF-β1 (5 ng/mL), 72 hours, standardized using GAPDH

Answered examples (10):
# molecule, reading
data = [
    ("CC(C)(C)CC(=O)N1CCN(C(=O)NCC2CCNCC2)c2ccccc21 [Compound 79]", "≤ 30 µM"),
    ("O=C(N[C@@H]1CCNC1)N1CCN(Cc2ccccc2)c2ccccc21 [Compound 33]", "1 to 10 µM"),
    ("CC(C)N[C@H]1CCN(C(=O)N2CCN(Cc3ccccn3)c3ccccc32)C1 [Compound 47]", "≤ 30 µM"),
    ("O=C(NCC1CCNCC1)N1CCN(Cc2ncccc2F)c2ccccc21 [Compound 68]", "≤ 30 µM"),
    ("O=C(NC1CCNCC1)N1CCN(c2ccccn2)c2ccccc21 [Compound 13]", "1 to 10 µM"),
    ("O=C(NC1CCNCC1)N1CCN(c2cnccn2)c2ccccc21 [Compound 23]", "1 to 10 µM"),
    ("CC(C)CN[C@H]1CCN(C(=O)N2CCN(Cc3ccccn3)c3ccccc32)C1.O=C(O)/C=C/C(=O)O [Compound 51]", "< 1 µM"),
    ("CN1CCC(CNC(=O)N2CCN(Cc3ccc(F)cn3)c3ccccc32)CC1 [Compound 67]", "≤ 30 µM"),
    ("O=C(N1CCCCC1)N1CCN(C2CCCCC2)c2ccccc21 [Compound 71]", "1 to 10 µM"),
    ("CN1CCC(CNC(=O)N2CCN(Cc3ncccc3F)c3ccccc32)CC1 [Compound 69]", "1 to 10 µM"),
]

What does the data say about its IC50? Entry: CN1CCN(C(=O)N2CCN(C3CCCCC3)c3ccccc32)CC1 [Compound 70]
1 to 10 µM

Field entry: CN[C@H]1CCN(C(=O)N2CCN(Cc3ccccc3F)c3ccccc32)C1 [Compound 38]
1 to 10 µM

Field entry: O=C(N[C@H]1CCNC1)N1CCN(c2cnccn2)c2ccccc21 [Compound 19]
1 to 10 µM

Field entry: O=C(N1CCNCC1)N1CCN(c2ccccc2Cl)c2ccccc21 [Compound 10]
< 1 µM

Field entry: O=C(N1CCCC1)N1CCN(c2ccccc2Cl)c2ccccc21 [Compound 8]
10 to 30 µM
